# credit: patent US20190092871A1

Target: T1, human CD20 (human, UniProt P11836 1-297)
T1 construct: The forward primer starts at codon 2; also called hCD20; CHO-K1-hCD20
T1 sequence: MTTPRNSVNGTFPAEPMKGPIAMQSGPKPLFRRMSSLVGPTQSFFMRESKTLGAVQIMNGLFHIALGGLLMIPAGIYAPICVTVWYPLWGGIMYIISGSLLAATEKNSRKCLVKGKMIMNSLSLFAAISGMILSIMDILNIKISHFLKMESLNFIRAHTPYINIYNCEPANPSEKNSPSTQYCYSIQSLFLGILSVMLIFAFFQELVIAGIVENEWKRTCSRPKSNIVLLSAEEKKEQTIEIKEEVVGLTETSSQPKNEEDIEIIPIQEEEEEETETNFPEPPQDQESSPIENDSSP
Test: FACS, 5 ug/ml VHH on CHO-K1 cells stably expressing human CD20, FITC anti-his detection

BINDER | binding result
2HCD17 (VHH, Whole entry = VHH-AAA-HA-His6 (pMECS construct)) VHH: QVQLQESGGGLVQAGGSLRLSCAASGRTVGSYSMGWFRQAPGKEREFVAAVIWSGASPYYADSVKGRFTISRDNAKNTVYLQMNSLKPEDTAVYYCAANPTYSGGWHAEYWGQGTQVTVSS | binds
2HCD81 (VHH, Whole entry = VHH-AAA-HA-His6 (pMECS construct)) VHH: QVQLQESGGGLVQAGGSLRLSCAASGRTFSSYNMGWFRQAPGKEREFVAVISWSGGSPYYADSVKGRFTISRDNAKNTVYLQMNSLKPEDTAVYYCAAPVSYGSSWLADYWGQGTQVTVSS | binds
